Cited source: patent US6723741B2

Molecular target: human α1C adrenergic receptor (Homo sapiens, UniProt P35348)
Construct: expressed in transfected cells
Sequence (P35348 whole entry): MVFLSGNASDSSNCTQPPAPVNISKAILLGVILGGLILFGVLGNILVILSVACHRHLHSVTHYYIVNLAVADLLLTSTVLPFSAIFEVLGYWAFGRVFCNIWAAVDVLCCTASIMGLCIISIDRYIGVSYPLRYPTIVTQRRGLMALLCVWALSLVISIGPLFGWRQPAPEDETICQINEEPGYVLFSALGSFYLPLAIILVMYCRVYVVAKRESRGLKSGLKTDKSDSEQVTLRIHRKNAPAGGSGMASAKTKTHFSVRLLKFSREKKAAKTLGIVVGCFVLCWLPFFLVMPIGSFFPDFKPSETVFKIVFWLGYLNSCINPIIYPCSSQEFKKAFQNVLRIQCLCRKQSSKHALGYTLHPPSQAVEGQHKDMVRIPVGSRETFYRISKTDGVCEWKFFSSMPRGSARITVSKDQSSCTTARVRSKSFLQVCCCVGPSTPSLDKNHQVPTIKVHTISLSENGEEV
Experiment: Radioligand binding assay, [3H]prazosin competition
Settings: cloned human α1C (old nomenclature; = α1A), LM(tk-) cell membranes, read-out: pKi Alpha-1 C (converted)
Measurement Name: Ki (nM)
Unit nM implied. Number only.

Recorded Ki for N#Cc1cc(NC2=NCCN2)cc2cc[nH]c12 on human α1C adrenergic receptor (Homo sapiens, UniProt P35348) was 1450

Recorded Ki for c1nc2ccc(NC3=NCCS3)cc2s1 on human α1C adrenergic receptor (Homo sapiens, UniProt P35348) was 5750

Recorded Ki for Brc1cc(NC2=NCCN2)cc2cc[nH]c12 on human α1C adrenergic receptor (Homo sapiens, UniProt P35348) was 19.1

Recorded Ki for c1nc2ccc(NC3=NCCN3)cc2s1 on human α1C adrenergic receptor (Homo sapiens, UniProt P35348) was 2340

Recorded Ki for c1nc2cc(NC3=NCCN3)ccc2s1 on human α1C adrenergic receptor (Homo sapiens, UniProt P35348) was 708

Recorded Ki for CC(=O)c1cc(NC2=NCCN2)cc2cc[nH]c12 on human α1C adrenergic receptor (Homo sapiens, UniProt P35348) was 186

---

Target: human α2B adrenergic receptor (Homo sapiens, UniProt P18089)
Construct: expressed in transfected cells
Sequence (P18089 whole entry): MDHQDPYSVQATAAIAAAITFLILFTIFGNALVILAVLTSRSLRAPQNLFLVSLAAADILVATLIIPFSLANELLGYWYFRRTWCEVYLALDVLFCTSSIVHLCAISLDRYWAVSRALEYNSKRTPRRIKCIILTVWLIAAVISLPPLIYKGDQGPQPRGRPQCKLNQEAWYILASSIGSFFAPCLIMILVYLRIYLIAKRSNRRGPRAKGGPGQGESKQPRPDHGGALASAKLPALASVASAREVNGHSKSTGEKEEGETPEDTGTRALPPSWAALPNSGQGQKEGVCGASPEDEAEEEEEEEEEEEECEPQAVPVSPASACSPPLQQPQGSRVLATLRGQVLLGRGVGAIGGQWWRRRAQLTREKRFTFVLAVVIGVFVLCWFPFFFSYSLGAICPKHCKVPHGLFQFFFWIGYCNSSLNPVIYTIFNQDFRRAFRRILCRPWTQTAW
Assay: Radioligand binding assay, [3H]rauwolscine competition
Answer each item with its documented Ki.
Unit nM implied. Number only.

get_value(item= c1nc2ccc(NC3=NCCN3)cc2s1 , readout=Ki) returns 14.1

get_value(item= N#Cc1cc(NC2=NCCN2)cc2cc[nH]c12 , readout=Ki) returns 15.5

get_value(item= CC(=O)c1cc(NC2=NCCN2)cc2cc[nH]c12 , readout=Ki) returns 45.7

get_value(item= Cc1cc(NC2=NCCS2)cc2cc[nH]c12 , readout=Ki) returns 4.9

get_value(item= c1nc2cc(NC3=NCCN3)ccc2s1 , readout=Ki) returns 4.57

get_value(item= Brc1cc(NC2=NCCN2)cc2cc[nH]c12 , readout=Ki) returns 2.88

---

Biological target: human α2A adrenergic receptor (Homo sapiens)
Experiment: Agonist activity: inhibition of forskolin-stimulated cAMP synthesis
Measurement Name: pEC50
pEC50 (log units): -log10 of the concentration in mol/L.

get_value(item= c1nc2ccc(NC3=NCCN3)cc2s1 , readout=pEC50) returns 6.38

---

Answer each item with its documented pKi.
Molecular target: human α1B adrenergic receptor (Homo sapiens)
Construct: The entire coding region of α1B (1563 bp); expressed in transfected cells
Sequence (P35368 1-520): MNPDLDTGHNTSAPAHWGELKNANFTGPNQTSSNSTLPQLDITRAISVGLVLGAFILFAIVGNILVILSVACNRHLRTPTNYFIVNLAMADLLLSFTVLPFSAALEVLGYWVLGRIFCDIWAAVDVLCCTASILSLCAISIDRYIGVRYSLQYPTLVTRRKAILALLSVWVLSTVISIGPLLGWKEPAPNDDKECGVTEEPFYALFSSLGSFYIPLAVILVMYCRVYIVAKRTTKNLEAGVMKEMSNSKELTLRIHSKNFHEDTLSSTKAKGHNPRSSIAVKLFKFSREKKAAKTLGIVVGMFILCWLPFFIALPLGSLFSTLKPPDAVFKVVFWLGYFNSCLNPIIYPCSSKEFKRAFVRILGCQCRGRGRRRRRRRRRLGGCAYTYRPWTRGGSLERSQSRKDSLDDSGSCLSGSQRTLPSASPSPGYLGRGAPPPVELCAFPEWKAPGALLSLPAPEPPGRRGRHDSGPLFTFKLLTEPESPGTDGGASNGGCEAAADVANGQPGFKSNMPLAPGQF
Test: Radioligand binding assay, [3H]prazosin competition
pKi (log units): -log10 of the concentration in mol/L.

get_value(item= c1nc2ccc(NC3=NCCS3)cc2s1 , readout=pKi) returns 5.14

get_value(item= c1nc2ccc(NC3=NCCN3)cc2s1 , readout=pKi) returns 5.44

---

Target: human α2A adrenergic receptor (Homo sapiens)
Sequence (P08913 1-465): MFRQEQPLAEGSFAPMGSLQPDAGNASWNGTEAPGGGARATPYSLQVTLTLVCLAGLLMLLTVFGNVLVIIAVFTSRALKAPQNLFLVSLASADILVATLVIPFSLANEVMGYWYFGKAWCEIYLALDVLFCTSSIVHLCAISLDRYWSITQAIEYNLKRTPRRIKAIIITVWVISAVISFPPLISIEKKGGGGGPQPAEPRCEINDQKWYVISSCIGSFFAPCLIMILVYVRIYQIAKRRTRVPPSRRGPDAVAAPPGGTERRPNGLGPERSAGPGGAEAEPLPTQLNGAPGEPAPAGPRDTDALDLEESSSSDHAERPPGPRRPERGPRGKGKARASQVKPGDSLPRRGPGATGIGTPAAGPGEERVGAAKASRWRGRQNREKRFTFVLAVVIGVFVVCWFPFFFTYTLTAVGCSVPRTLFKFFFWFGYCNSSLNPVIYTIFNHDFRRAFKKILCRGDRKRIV
Assay: Agonist activity: inhibition of forskolin-stimulated cAMP synthesis
Conditions: maximum activity relative to maximum activity induced by norepinephrine, human α2A
Measurement Name: I.A (Intrinsic Activity) Alpha-2 A
Form rule: numeric answer, no unit written next to it.

get_value(item= c1nc2ccc(NC3=NCCS3)cc2s1 [Example 15, 6-(2-Thiazolin-2-ylamino)benzothiazole] , readout=I.A (Intrinsic Activity) Alpha-2 A) returns 0.58

get_value(item= c1nc2ccc(NC3=NCCN3)cc2s1 [Example 14, 6-(2-Imidazolin-2-ylamino)benzothiazole] , readout=I.A (Intrinsic Activity) Alpha-2 A) returns 0.51

get_value(item= Cc1cc(NC2=NCCS2)cc2cc[nH]c12 [Example 8, 7-Methyl-5-(2-thiazolin-2-ylamino)indole] , readout=I.A (Intrinsic Activity) Alpha-2 A) returns 0.60

get_value(item= c1nc2cc(NC3=NCCN3)ccc2s1 [Example 13, 5-(2-Imidazolin-2-ylamino)benzothiazole] , readout=I.A (Intrinsic Activity) Alpha-2 A) returns 0.98

get_value(item= Brc1cc(NC2=NCCN2)cc2cc[nH]c12 [Example 2, 7-Bromo-5-(2-imidazolin-2-ylamino)indole] , readout=I.A (Intrinsic Activity) Alpha-2 A) returns 0.46

---

Answer each item with its documented I.A (Intrinsic Activity) Alpha-2 B.
Molecular target: human α2B adrenergic receptor (Homo sapiens)
Construct: expressed in transfected cells
Test: Agonist activity: inhibition of forskolin-stimulated cAMP synthesis
Assay type: cell-based
Details: maximum activity relative to maximum activity induced by norepinephrine, human α2B

Recorded I.A (Intrinsic Activity) Alpha-2 B for CC(=O)c1cc(NC2=NCCN2)cc2cc[nH]c12 [Example 6] on human α2B adrenergic receptor (Homo sapiens) was 0.70

Recorded I.A (Intrinsic Activity) Alpha-2 B for N#Cc1cc(NC2=NCCN2)cc2cc[nH]c12 [Example 5, 7-Cyano-5-(2-imidazolin-2-ylamino)indole] on human α2B adrenergic receptor (Homo sapiens) was 0.60

Recorded I.A (Intrinsic Activity) Alpha-2 B for c1nc2cc(NC3=NCCN3)ccc2s1 [Example 13, 5-(2-Imidazolin-2-ylamino)benzothiazole] on human α2B adrenergic receptor (Homo sapiens) was 0.82

Recorded I.A (Intrinsic Activity) Alpha-2 B for c1nc2ccc(NC3=NCCN3)cc2s1 [Example 14, 6-(2-Imidazolin-2-ylamino)benzothiazole] on human α2B adrenergic receptor (Homo sapiens) was 0.47

Recorded I.A (Intrinsic Activity) Alpha-2 B for c1nc2ccc(NC3=NCCS3)cc2s1 [Example 15, 6-(2-Thiazolin-2-ylamino)benzothiazole] on human α2B adrenergic receptor (Homo sapiens) was 0.57

Recorded I.A (Intrinsic Activity) Alpha-2 B for Cc1cc(NC2=NCCS2)cc2cc[nH]c12 [Example 8, 7-Methyl-5-(2-thiazolin-2-ylamino)indole] on human α2B adrenergic receptor (Homo sapiens) was 0.80

Recorded I.A (Intrinsic Activity) Alpha-2 B for Brc1cc(NC2=NCCN2)cc2cc[nH]c12 [Example 2, 7-Bromo-5-(2-imidazolin-2-ylamino)indole] on human α2B adrenergic receptor (Homo sapiens) was 0.75

---

Counter-ions that a name gives are not always drawn.
Answer each item with its documented melting point.

get_value(item= Brc1cc(NC2=NCCN2)cc2cc[nH]c12 (as salt: fumarate) , readout=melting point) returns 272 to 273 °C

get_value(item= C=C(C)c1cc(NC2=NCCN2)cc2cc[nH]c12 (as salt: maleate) , readout=melting point) returns 154 to 156 °C

get_value(item= Cc1cc(NC2=NCCN2)cc2ncsc12 (as salt: fumarate) , readout=melting point) returns 179 to 181 °C

get_value(item= c1nc2cc(NC3=NCCN3)ccc2s1 (as salt: fumarate) , readout=melting point) returns 201 to 203 °C

get_value(item= Brc1cc(NC2=NCCN2)cc2ncsc12 (as salt: fumarate) , readout=melting point) returns 209 to 211 °C

get_value(item= Clc1cc(NC2=NCCN2)cc2ncsc12 (as salt: fumarate) , readout=melting point) returns 203 to 205 °C

get_value(item= c1nc2ccc(NC3=NCCS3)cc2s1 (as salt: fumarate) , readout=melting point) returns 181 to 183 °C

get_value(item= Clc1cc(NC2=NCCN2)cc2cc[nH]c12 (as salt: fumarate) , readout=melting point) returns 261 to 262 °C
